Measured values drawn from patent US20250276075A1 for this set.

Molecular target: Axl (UniProt P30530)
Sequence (P30530 26-451 limits assumed): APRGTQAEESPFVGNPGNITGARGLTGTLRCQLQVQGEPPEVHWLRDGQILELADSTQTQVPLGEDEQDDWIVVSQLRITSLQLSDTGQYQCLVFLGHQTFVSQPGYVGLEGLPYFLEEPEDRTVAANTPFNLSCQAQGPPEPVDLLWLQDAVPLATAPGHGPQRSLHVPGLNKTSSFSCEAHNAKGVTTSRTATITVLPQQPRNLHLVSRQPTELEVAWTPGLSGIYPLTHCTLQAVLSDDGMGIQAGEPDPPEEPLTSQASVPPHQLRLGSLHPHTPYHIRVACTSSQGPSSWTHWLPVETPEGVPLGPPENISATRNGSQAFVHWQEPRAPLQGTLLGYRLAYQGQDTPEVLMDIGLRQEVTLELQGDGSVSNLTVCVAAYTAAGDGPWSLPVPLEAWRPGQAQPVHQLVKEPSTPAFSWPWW
Test: ELISA, 1:3 dilution
measuredParameter: Affinity ELISA CPE mutant ratio (1:3, pH 6.0/7.4)

* HC-E102Y (antibody, V domains shown) VH: EVQLVQSGAEVKKPGATVKISCKVSGYSFTGHTMNWIRQPPGKGLEWIGLIKPSNGGTSYNQKFKGRVTISADKSISTAYLQWSSLKASDTAMYYCAHGHYYSYFAMDYWGQGTLVTVSS VL: DIQMTQSPSSLSASVGDRVTITCKASQDVSSAVAWYQQKPGQAPRLLIYWASTRHTGVPSRFSGSGSGTEFTLTISSLQPDDFATYYCQEHFSTPLTFGQGTKVEIK | 2.61
* HC-T033I (antibody, V domains shown) VH: EVQLVQSGAEVKKPGATVKISCKVSGYSFTGHIMNWIRQPPGKGLEWIGLIKPSNGGTSYNQKFKGRVTISADKSISTAYLQWSSLKASDTAMYYCAHGHYESYFAMDYWGQGTLVTVSS VL: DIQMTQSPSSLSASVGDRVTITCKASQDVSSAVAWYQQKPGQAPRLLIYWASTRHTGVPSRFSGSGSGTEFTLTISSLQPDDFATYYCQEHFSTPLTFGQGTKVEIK | 1.59
* HC-A106D (antibody, V domains shown) VH: EVQLVQSGAEVKKPGATVKISCKVSGYSFTGHTMNWIRQPPGKGLEWIGLIKPSNGGTSYNQKFKGRVTISADKSISTAYLQWSSLKASDTAMYYCAHGHYESYFDMDYWGQGTLVTVSS VL: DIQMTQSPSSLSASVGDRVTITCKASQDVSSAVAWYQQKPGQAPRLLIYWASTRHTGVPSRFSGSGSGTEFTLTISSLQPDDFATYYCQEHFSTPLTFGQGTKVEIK | 3.39
* HC-H100D (antibody, V domains shown) VH: EVQLVQSGAEVKKPGATVKISCKVSGYSFTGHTMNWIRQPPGKGLEWIGLIKPSNGGTSYNQKFKGRVTISADKSISTAYLQWSSLKASDTAMYYCAHGDYESYFAMDYWGQGTLVTVSS VL: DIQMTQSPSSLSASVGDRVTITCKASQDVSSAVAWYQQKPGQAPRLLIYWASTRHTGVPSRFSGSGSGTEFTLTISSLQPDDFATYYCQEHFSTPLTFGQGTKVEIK | 2.42
* HC-S059T (antibody, V domains shown) VH: EVQLVQSGAEVKKPGATVKISCKVSGYSFTGHTMNWIRQPPGKGLEWIGLIKPSNGGTTYNQKFKGRVTISADKSISTAYLQWSSLKASDTAMYYCAHGHYESYFAMDYWGQGTLVTVSS VL: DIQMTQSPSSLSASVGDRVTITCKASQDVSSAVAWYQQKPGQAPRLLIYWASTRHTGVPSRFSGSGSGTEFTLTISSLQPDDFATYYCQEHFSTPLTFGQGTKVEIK | 1.02
